B1: Steroid hormone receptor ERR2, residues 100 to 176; numbered along this chain, O95718 (parent)
chain: KRLCLVCGDIASGYHYGVASCEACKAFFKRTIQGNIEYSCPATNECEITKRRRKSCQACRFMKCLKVGMLKEGVRLD

Variants of: B1
Test: abundance fitness (aPCA) (normalised: wild type 0, dead -1); higher = more abundant; growth selection in yeast, the domain comes from the species named
Details: Homo sapiens
Assign 1 whenever abundance fitness does not fall below -0.5; assign 0 whenever it does.

- MUTANT LABEL: "G8C"
  CLASS NAME: 1
- MUTANT LABEL: "K63A"
  CLASS NAME: 1
- MUTANT LABEL: "T49H"
  CLASS NAME: 0
- MUTANT LABEL: "Y16S"
  CLASS NAME: 1
- MUTANT LABEL: "S20A"
  CLASS NAME: 1
- MUTANT LABEL: "C21L"
  CLASS NAME: 0
- MUTANT LABEL: "C64Y"
  CLASS NAME: 0
- MUTANT LABEL: "R30A"
  CLASS NAME: 1
- MUTANT LABEL: "F28V"
  CLASS NAME: 1
- MUTANT LABEL: "R2D"
  CLASS NAME: 1
- MUTANT LABEL: "C21E"
  CLASS NAME: 0
- MUTANT LABEL: "P41K"
  CLASS NAME: 1
- MUTANT LABEL: "E45M"
  CLASS NAME: 1
- MUTANT LABEL: "I48M"
  CLASS NAME: 1
- MUTANT LABEL: "K25H"
  CLASS NAME: 1
- MUTANT LABEL: "I36R"
  CLASS NAME: 1
- MUTANT LABEL: "Y38K"
  CLASS NAME: 0
- MUTANT LABEL: "Y16L"
  CLASS NAME: 1
- MUTANT LABEL: "K29S"
  CLASS NAME: 1
- MUTANT LABEL: "T31I"
  CLASS NAME: 1
- MUTANT LABEL: "C40I"
  CLASS NAME: 1
- MUTANT LABEL: "S20R"
  CLASS NAME: 1
- MUTANT LABEL: "T31D"
  CLASS NAME: 0
- MUTANT LABEL: "Q57G"
  CLASS NAME: 1
- MUTANT LABEL: "C64W"
  CLASS NAME: 0
- MUTANT LABEL: "G8I"
  CLASS NAME: 0
- MUTANT LABEL: "C56P"
  CLASS NAME: 0
- MUTANT LABEL: "L5H"
  CLASS NAME: 1
- MUTANT LABEL: "Y38P"
  CLASS NAME: 0
- MUTANT LABEL: "R2C"
  CLASS NAME: 1
- MUTANT LABEL: "N35F"
  CLASS NAME: 1
- MUTANT LABEL: "L5R"
  CLASS NAME: 1
- MUTANT LABEL: "T49K"
  CLASS NAME: 1
- MUTANT LABEL: "R2H"
  CLASS NAME: 1
- MUTANT LABEL: "G13P"
  CLASS NAME: 1
- MUTANT LABEL: "A26M"
  CLASS NAME: 1
- MUTANT LABEL: "T31C"
  CLASS NAME: 1
- MUTANT LABEL: "R52K"
  CLASS NAME: 1
- MUTANT LABEL: "Q33T"
  CLASS NAME: 1
- MUTANT LABEL: "T49V"
  CLASS NAME: 1
- MUTANT LABEL: "K1L"
  CLASS NAME: 0
- MUTANT LABEL: "F61Q"
  CLASS NAME: 1
- MUTANT LABEL: "C59N"
  CLASS NAME: 0

Values from the Human Domainome abundance scans (Beltran et al. 2025)
